- measurementTarget: recombinant human TGF-β1 (R&D systems) (human, UniProt P01137 279-390)
- Sequence (P01137 279-390 limits assumed): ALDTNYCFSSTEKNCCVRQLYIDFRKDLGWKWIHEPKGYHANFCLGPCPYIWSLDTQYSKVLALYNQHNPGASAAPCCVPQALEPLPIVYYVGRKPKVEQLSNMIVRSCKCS
- measurementProtocol: cell-based or functional assay
Starred links: 1 amine or outer side, 2 acyl side, 3 side chain; linkers in the order of their positions; H or OH if unused. Positions of bridges follow the written chain, without caps; N, C: chain ends. Non-standard residues stand in square brackets, D forms with d. No end group written: not given here. KCOpipzaa = N6-(4-(carboxymethyl)piperazine-1-carbonyl)-L-lysine, O=C(NCCCC[C@H](N[*:1])C(=O)[*:2])N1CCN(CC(=O)[*:3])CC1; Trp(6-aza) = N[C@@H](Cc1c[nH]c2cnccc12)C(=O)O; Trp(7-aza) = N[C@@H](Cc1c[nH]c2ncccc12)C(=O)O; 1Nal = N[C@@H](Cc1cccc2ccccc12)C(=O)O; Gly(NCH2CH2Ph) = O=C(O)CNCCc1ccccc1; 4Pal = N[C@@H](Cc1ccncc1)C(=O)O
quantityKind: SBE reporter % inhibition, peptide 0.075 nM (%)

# example entries with known answers
{CH2CO}-F[Trp(7-aza)]VVNVYDD[Gly(NCH2CH2Ph)]V[1Nal]YHVCG (thioether N-16; not fully specified (C-terminus), cyclic peptide; C-terminal G is a linker) [TGFb1_005] = 0.4
{CH2CO}-F[Trp(7-aza)]VVNV[4Pal]DD[Gly(NCH2CH2Ph)]V[1Nal]YHVCG (thioether N-16; not fully specified (C-terminus), cyclic peptide; C-terminal G is a linker) [TGFb1_008] = 3.8

(P) {CH2CO}-F[1Nal]V[KCOpipzaa]NV[4Pal]DD[Gly(NCH2CH2Ph)]V[1Nal]YHVCG (thioether N-16; not fully specified (C-terminus), cyclic peptide; C-terminal G is a linker) [TGFb1_010]
(Q) {CH2CO}-F[Trp(6-aza)]VVNVYDD[Gly(NCH2CH2Ph)]V[1Nal]YHVCG (thioether N-16, cyclic peptide; C-terminal G is a linker) [TGFb1_004]
Q. Field: lower SBE reporter % inhibition, peptide 0.075 nM | Options: P / Q The response must carry the label of the picked entry.
A. Q
(Q: 0%, P: 2%)
